# Assay Name: OD615 S. cerevisiae growth inhibition, permissive medium, pilot counter-assay, permissive growth control for S. cerevisiae lifespan shortening project (AID 705)
# Measurement Setup: OD615, 24 h, at 10 µM, stronger effect = higher value
Readout Kind: growth inhibition (%)

Compound | Readout Kind | Unit Label | Assay Result
O=C(C(Cc1ccccc1)n1cccc1)N1CCN(C2CCCCC2)CC1 (stereo unspecified) | growth inhibition | % | -10.9
Cc1cc(-n2nc(C)cc2C)nc(NS(=O)(=O)c2ccccc2)n1 | growth inhibition | % | -11.4
Cc1ccc(C2CC(c3ccc(Cl)cc3)n3nc(N)nc3N2)cc1 (stereo unspecified) | growth inhibition | % | 1.88
O=C(CSc1ccccc1)NCc1cccnc1 | growth inhibition | % | -4.86
CC1CCN(CCCn2c(=S)[nH]c3ccccc3c2=O)CC1 | growth inhibition | % | 1.02
COc1ccccc1Nc1nc(N)nc(CN2CCOCC2)n1 | growth inhibition | % | -12.9
